# credit: the supplement of paper PMC10290057

system: HCT116; assay: AC50 cell viability (CellTiter-Glo); higher = less potent; conditions: 48 h
Structures can show the parent of a compound that is named as a salt.
# log10 of AC50 cell viability per record follows
Kindly note that the scale is log10 and the underlying AC50 cell viability is in µM.

Some solved cases for reference:
COCC(=O)NC/C=C/c1ccc2ncnc(Nc3ccc(Oc4ccc(C)nc4)c(C)c3)c2c1 :: 1.32
COc1ccc(OC)c(-c2nnc3ccc(-c4ccc(OC)c(O[C@@H]5CCOC5)c4)nn23)c1 :: 0.47
Nc1ccc(C(=O)Nc2cccc(-c3nc(N4CCOCC4)c4oc5ncccc5c4n3)c2)cn1 :: 0.77
CC(=O)N(O)CCCCCNC(=O)CCC(=O)N(O)CCCCCNC(=O)CCC(=O)N(O)CCCCCN [Deferoxamine mesylate] :: 0.97
O=C(/C=C/c1cccnc1)NCCCCC1CCN(C(=O)c2ccccc2)CC1 :: -2.28

Q. Give log10 of AC50 cell viability for C=C1C(=O)OC2/C=C(/C)CC/C=C(/C)CCC12 (stereo not drawn) [Costunolide]
A. 1.32

Q. Give the measured log10 of AC50 cell viability for `Cc1cccc(-c2[nH]c(C(C)(C)C)nc2-c2ccc3nccnc3c2)n1`
A. 1.32

Q. Name the recorded log10 of AC50 cell viability of the compound listed here: O=C(c1ccc(OCCN2CCCCC2)cc1)c1c(-c2ccc(O)cc2)sc2cc(O)ccc12 [Raloxifene hydrochloride]
A. 1.32

###

tested on: HCT116; experiment: AC50 cell viability (CellTiter-Glo); higher = less potent; conditions: 48 h;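 note: HCT116 colorectal carcinoma cells screened at five concentrations per compound, luminescent viability scaled between DMSO wells and empty wells on each plate, curves fitted per compound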
Where a name gives a salt, the structure may show the parent alone.
Listed here: items and their measured AC50 cell viability.
Number only, in µM; omit the unit.

Cn1cc(-c2ccc(F)c(C(F)(F)F)c2)nc1C1CCN(c2ncnc3[nH]ncc23)CC1 :: 16.6
CN(C)C1=CC=C(C=C1)C(C2=CC=C(C=C2)N(C)C)=C/3\C=C/C(/C=C3)=[N+](C)C [Methylrosaniline chloride] :: 0.833
OCCNC1CCCc2c1[nH]c1ccc(-c3ccccc3)cc21 (stereo not drawn) :: 8.33
CC[C@@]1(O)C(=O)OC/C2=C1/C=C3\N(CC4=C5[C@@H](N)CCC6=C5C(=CC(=C6C)F)N=C34)C2=O :: 0.0417
Cc1cc2cc(Oc3ccnc(Nc4cccc(C[S+](=O)([O-])NCCN(C)C)c4)n3)ccc2[nH]1 :: 11.8
CCc1cc(C(N)=O)ccc1-n1nc(C(C)C)c2c(-n3cnc(-c4cnn(C)c4)c3)ccnc21 :: 1.05
O=C/1NC(=O)C(=C1C2=CN=C3C=CC=C[N]23)/C4=C[N]5CCN(CC6=C5C4=CC=C6)C(=O)N7CCOCC7 :: 9.34
CN(C)CCN1C(=O)c2cccc3cc(NC(N)=O)cc(c23)C1=O :: 4.68
C/C=C/C[C@@H](C)C(=O)[C@H]1C(=O)N[C@@H](C(C)C)C(=O)N(C)CC(=O)N(C)[C@@H](CC(C)C)C(=O)N[C@@H](C(C)C)C(=O)N(C)[C@@H](CC(C)C)C(=O)N[C@@H](C)C(=O)N[C@H](C)C(=O)N(C)[C@@H](CC(C)C)C(=O)N(C)[C@@H](CC(C)C)C(=O)N(C)[C@@H](C(C)C)C(=O)N1C :: 8.11
C[N]1N=CC2=C1C=C(C(=C2)OC3=CC=C(NC(=O)\C4=C\C=C(\C)N(C4=O)C5=CC=C(F)C=C5)C=C3F)C6=C[NH]N=C6 :: 3.32

Q. Tell me measured AC50 cell viability for `COc1ccc([S+](=O)([O-])Nc2cccnc2Nc2ccc(O)cc2)cc1` please.
A. 0.59

Q. Supply recorded AC50 cell viability for OC[C@H]1O[C@@H]2[C@@H](OC\3=N\C(=N)\C=C/[N@@]23)[C@@H]1O [Cyclocytidine hydrochloride] here.
A. 0.186

Q. Quote AC50 cell viability reported for `CC[P](CC)(CC)=[Au][S][C@@H]1O[C@H](COC(C)=O)[C@@H](OC(C)=O)[C@H](OC(C)=O)[C@H]1OC(C)=O` please.
A. 2.63
